Known angle of repose of a selection of molecules
# protocolDescription: Powder flowability test (angle of repose)
# Format: physicochemical
# conditionInfo: average of three determinations; α=arctg(H/R); hydrochloride
Counter-ions that a name gives are not always drawn.
State the answer as a number, implicitly in °.

Recorded angle of repose for CN(C)C(=O)N[C@H]1CC[C@H](CCN2CCN(c3cccc(Cl)c3Cl)CC2)CC1 [Form II, cariprazine hydrochloride] , please?
40

Endpoint output: angle of repose of CN(C)C(=O)N[C@H]1CC[C@H](CCN2CCN(c3cccc(Cl)c3Cl)CC2)CC1 [Form B, hydrochloride] . Value?
28

What does the record list as angle of repose for CN(C)C(=O)N[C@H]1CC[C@H](CCN2CCN(c3cccc(Cl)c3Cl)CC2)CC1 [Form I, cariprazine hydrochloride] ?
40

Param item = CN(C)C(=O)N[C@H]1CC[C@H](CCN2CCN(c3cccc(Cl)c3Cl)CC2)CC1 [Form C, hydrochloride] ; retrieve measured angle of repose.
31

New cases:
What angle of repose value was documented for this molecule, CN(C)C(=O)N[C@H]1CC[C@H](CCN2CCN(c3cccc(Cl)c3Cl)CC2)CC1 [Form A, hydrochloride] ?
35
